- PROCEDURE TEXT: Substrate specificity of WNanoKAZ mutants, crude enzyme solution (Example 11)
- Type: biochemical
- TEST CONDITIONS: Imax
PARAMETER MEASURED: Relative luminescence activity, h-CTZ, Imax
Answers are plain numbers.

Here's what some known entries look like.
Task: Quick one: Relative luminescence activity, h-CTZ, Imax of WNanoKAZ-E115P: WNanoKAZ with substitution of proline for glutamic acid at position 115; SEQ ID NO: 10 (protein) FTLADFVGDWQQTAGYNQDQVLEQGGLSSLFQALGVSVTPIQKVVLSGENGLKADIHVIIPYEGLSGFQMGLIEMIFKVVYPVDDHHFKVILHYGTLVIDGVTPNMIDYFGRPYPGIAVFDGKKITVTGTLWNGNKIIDERLINPDGSLLFRVTINGVTGWRLCERILA ?
Output: 27

Task: Param item: WNanoKAZ-K124Q: single amino acid-substituted WNanoKAZ mutant K124Q; SEQ ID NO: 12 (protein) FTLADFVGDWQQTAGYNQDQVLEQGGLSSLFQALGVSVTPIQKVVLSGENGLKADIHVIIPYEGLSGFQMGLIEMIFKVVYPVDDHHFKVILHYGTLVIDGVTPNMIDYFGRPYEGIAVFDGKQITVTGTLWNGNKIIDERLINPDGSLLFRVTINGVTGWRLCERILA
Output: 70

Then this molecule:
Task: Name the reported Relative luminescence activity, h-CTZ, Imax value associated with the molecule WNanoKAZ-V90I: single amino acid-substituted WNanoKAZ mutant, valine 90 back to isoleucine; SEQ ID NO: 8 (protein) FTLADFVGDWQQTAGYNQDQVLEQGGLSSLFQALGVSVTPIQKVVLSGENGLKADIHVIIPYEGLSGFQMGLIEMIFKVVYPVDDHHFKIILHYGTLVIDGVTPNMIDYFGRPYEGIAVFDGKKITVTGTLWNGNKIIDERLINPDGSLLFRVTINGVTGWRLCERILA
Output: 41
